Tested on: PC-3
TEST PROTOCOL: Cytotoxicity against human PC-3 cells assessed as inhibition of cell growth by SRB assay
Assay type: functional, cell-based
Below: a set of entries, each annotated with reported pIC50.
Units for pIC50: none; it is -log10 of a concentration expressed in mol/L.

The cases that follow already have their pIC50 on record.
Suppose we examine the compound `CC(C)n1cnc2c(-c3ccc(OCCCCCCC(=O)NO)cc3)nc(N3CCOCC3)nc21` ; what pIC50 value has been reported? 6.01

Suppose we examine the compound `CC(C)n1cnc2c(-c3cccc(COCCCCCCC(=O)NO)c3)nc(N3CCOCC3)nc21` ; what pIC50 value has been reported? 6.80

Suppose we examine the compound `CC(C)n1cnc2c(-c3ccc(COCCCCCCCC(=O)NO)cc3)nc(N3CCOCC3)nc21` ; what pIC50 value has been reported? 6.01

Suppose we examine the compound `CC(C)n1cnc2c(-c3ccc(COCCCCC(=O)NO)cc3)nc(N3CCOCC3)nc21` ; what pIC50 value has been reported? 6.01

New cases:
Suppose we examine the compound `CC(C)n1cnc2c(-c3cccc(OCCCCC(=O)NO)c3)nc(N3CCOCC3)nc21` ; what pIC50 value has been reported? 6.80

Suppose we examine the compound `O=C(/C=C/c1ccc(CN2C/C(=N\O)c3cc(Cl)ccc32)cc1)NO` ; what pIC50 value has been reported? 6.33

Suppose we examine the compound `CC(C)n1cnc2c(-c3cccc(COCC(=O)NO)c3)nc(N3CCOCC3)nc21` ; what pIC50 value has been reported? 6.80

Suppose we examine the compound `CC(C)n1cnc2c(-c3cccc(COCCCCCC(=O)NO)c3)nc(N3CCOCC3)nc21` ; what pIC50 value has been reported? 6.80

Suppose we examine the compound `CC(C)n1cnc2c(-c3cccc(OCCCCCCCC(=O)NO)c3)nc(N3CCOCC3)nc21` ; what pIC50 value has been reported? 6.80

Suppose we examine the compound `CC(C)n1cnc2c(-c3ccc(OCC(=O)NO)cc3)nc(N3CCOCC3)nc21` ; what pIC50 value has been reported? 6.01
